Test system: MDA-MB-231 breast
experiment description: NCI-60 one-dose screen, 48 h (100 = growth as untreated, 0 = no growth, -100 = all killed)
setup conditions: 10 µM unless noted
Procedure: Cells are grown in 96 well plates and exposed to the test compound for 48 hours. Compounds are tested at a single concentration, which is 10^-5 M for most compounds. The reported endpoint is percent growth (GI% or GIPRCNT), where numbers from 0 - 100% represent growth inhibition, and numbers from -100% - 0 represent cell death. For example, a value of 40 represents 60% growth inhibition. A value of 0 means no net growth occurred over the course of the experiment. […]
The panel holds about 83,000 compounds, 20% with a hit somewhere; the sample as a whole holds those more often. The source made the active and inactive calls. How the source made its calls: active means growth percent below 10; inactive means the rest.
experimental endpoint: growth

molecule: CC(CCC#N)(CCC#N)C(=O)c1ccccc1
growth: 109% (inactive)
--
molecule: O=C(NCc1ccco1)Nc1cccc2c(NC(=O)NCc3ccco3)cccc12
growth: 97.9% [100 µM] (inactive)
--
molecule: OCCc1ccc(Cl)cc1
growth: 96.9% (inactive)
--
molecule: CCN1CCCC(N2c3ccccc3Sc3ccccc32)C1 (centres undefined)
growth: 76.5% (inactive)
--
molecule: C=C1C(=O)C2CCN1CC2
growth: 125% (inactive)
--
molecule: ClCC(Cl)C1CCC(Cl)C(Cl)C1 (centres undefined)
growth: 113% (inactive)
--
molecule: O=C(O)Cc1ccc(Cl)cc1
growth: 102% (inactive)
--
molecule: C=CCN1CCCC1=O
growth: 94.7% (inactive)
--
molecule: Nc1cc(N)ncn1
growth: 96.1% (inactive)
--
molecule: CCCCCCCCCCCCCCCCCC(=O)NCCNC(=O)CCCCCCCCCCCCCCCCC
growth: 75.3% (inactive)

Return growth for the following molecule: CC(C)N(CCCC#N)C(C)C
102% (inactive)

Please give measured growth of the following entry: CCOC(=O)C1(N)CCCCC1
102% (inactive)

Could you please provide reported growth for COC(=O)C1=C(C)C(=O)CC1 ? Thanks!
102% (inactive)

###

Each entry below lists one item and its recorded growth value.
Test system: SK-MEL-5 melanoma
experiment description: NCI-60 one-dose screen, 48 h (100 = growth as untreated, 0 = no growth, -100 = all killed)
setup conditions: 10 µM unless noted
Protocol: Growth inhibition of the SK-MEL-5 human tumor cell line is measured as a screen for anti-cancer activity. Cells are grown in 96 well plates and exposed to the test compound for 48 hours. Compounds are tested at a single concentration, which is 10^-5 M for most compounds. The reported endpoint is percent growth (GI% or GIPRCNT), where numbers from 0 - 100% represent growth inhibition, and numbers from -100% - 0 represent cell death. For example, a value of 40 represents 60% growth inhibition. […]
The panel holds about 83,000 compounds, 20% with a hit somewhere; the sample as a whole holds those more often. Active and inactive are the calls of the source. The calls were made as follows: active = growth percent below 10; inactive = the rest.

Look up and report growth, with SK-MEL-5 melanoma as system, for COC(=O)c1ccccc1C(=O)c1c(C)cc(C)cc1C
101% (inactive)

Supply growth measured with SK-MEL-5 melanoma for N#Cc1ccc(OC(=O)Nc2cc(Cl)cc(Cl)c2)cc1 .
-94.3% [100 µM] (active)

Determine reported growth for O=C(O)c1ccc([N+](=O)[O-])cc1S(=O)(=O)O ; test system: SK-MEL-5 melanoma.
99.7% (inactive)

Look up and report growth, with SK-MEL-5 melanoma as system, for OCC1CCC(O)C(CO)N1 (stereo not given)
108% (inactive)

Report growth under test system SK-MEL-5 melanoma for CC(C)Sc1ncnc2nc[nH]c12 .
104% (inactive)

Quote growth with test system SK-MEL-5 melanoma for Oc1ccc(N=Cc2ccc(OCc3ccccc3)cc2)cc1
92.2% (inactive)

###

Measured growth by item
Test system: UO-31 renal
experiment description: NCI-60 one-dose screen, 48 h (100 = growth as untreated, 0 = no growth, -100 = all killed)
setup conditions: 10 µM unless noted
Compounds without any hit were thinned out: in the full panel of roughly 83,000, 20% have a hit.
Form entry: value (%) — number only.

compound: NC(=O)NCCO
system tested: UO-31 renal
growth [%]: 94.1

Note growth for the compound shown: COc1cccc(N=CNc2cccc(OC)c2)c1
91.1

Answer with reported growth of CCOC(=O)c1c(C)[nH]c(C)c1C=O
104

Consider the compound O=S(=O)(O)c1cccnc1 . State its measured growth.
109

Report growth for CC(=O)NNC(=S)/N=C\C(C(=O)c1ccccc1)=C(/O)c1ccccc1
79.8

For the compound O=C(O)c1ccc([N+](=O)[O-])cc1S(=O)(=O)O , give its measured growth value.
102

Note growth for the compound shown: ClCC(Cl)[C@@H]1CC2C=CC1C2 (stereo partly drawn)
88.7

Output measured growth for this item: CCOP(=O)(NC(c1ccccc1)c1ccccc1)OCC
84.4

###

Tested on: M14 melanoma
experiment description: NCI-60 one-dose screen, 48 h (100 = growth as untreated, 0 = no growth, -100 = all killed)
setup conditions: 10 µM unless noted
The panel holds about 83,000 compounds, 20% with a hit somewhere; the sample as a whole holds those more often.
Recorded growth values for a group of compounds are listed next.
Number only, in %; omit the unit.

smiles: OC(CCN1CCCCC1)(c1ccccc1)c1ccccc1
obs value: 99.2
--
smiles: O=C(Nc1ccccc1)c1ccco1
obs value: 97
--
smiles: CCN(CC)CCOC(=O)Nc1c(C(C)C)cccc1C(C)C
obs value: 107
--
smiles: CCOc1ccncc1[N+](=O)[O-]
obs value: 106

// moving on: another record for growth
Answer with the recorded growth for the compound listed here: CC(=O)Nc1ccc(O)c(C)c1
100

###

Tested on: SK-MEL-5 melanoma
experiment description: NCI-60 one-dose screen, 48 h (100 = growth as untreated, 0 = no growth, -100 = all killed)
setup conditions: 10 µM unless noted
Compounds without any hit were thinned out: in the full panel of roughly 83,000, 20% have a hit. Calls of active or inactive are those of the source. Rule for the calls: active = growth percent below 10; inactive = the rest.
Items are presented alongside their recorded growth.

molecule: Cc1ccccc1CC(N)C(=O)O (centres undefined)
growth: 117% (inactive)

molecule: O=C(NCc1ccco1)Nc1cccc2c(NC(=O)NCc3ccco3)cccc12
growth: 90% [100 µM] (inactive)

molecule: CCNc1ncnc2[nH]ncc12
growth: 101% (inactive)

molecule: CC(C)C1CCC(C)C(O)C1 (centres undefined)
growth: 105% (inactive)

molecule: O=C(O)C1CCCN1C(=O)OCc1ccccc1 (centres undefined)
growth: 104% (inactive)

State its growth: N#C/C(=C\c1ccc(C#N)cc1)C(=O)c1ccccc1
106% (inactive)

Identify the reported growth for the following entry. CC1(c2ccccc2)CO1 (centres undefined)
105% (inactive)

Give the value of growth reported for the following: O=C(NCc1ccccc1)c1cccc([N+](=O)[O-])c1
103% (inactive)

Find the measured growth of CS(=O)(=O)c1ccc(/C=C\C(=O)O)cc1 and report it.
99.5% (inactive)

Give the reported value of growth for this record: CCc1ccccc1C(=O)N(CC)CC
104% (inactive)

Given Nc1nc2nnc(-c3ccccc3)c(-c3ccccc3)n2n1 , respond with its growth.
86.5% (inactive)

Give the reported growth for this molecule. Cc1cc(C(=O)NN)c(C#N)c(=O)[nH]1
95.7% (inactive)

Respond only with growth recorded for Cn1c2ccccc2c2nnc(NCCCCO)nc21
94.4% (inactive)

For the molecule Cc1cc(C(=O)c2ccccc2)cc(C)c1O , report growth.
104% (inactive)

Write down growth measured for item O=C(CCCl)OCCOc1ccccc1
108% (inactive)

Quickly give me recorded growth for Cc1onc(-c2c(F)cccc2Cl)c1-c1ncc(-c2ccc(Br)cc2)o1
10.8% (inactive)

###

Tested on: MALME-3M melanoma
experiment description: NCI-60 one-dose screen, 48 h (100 = growth as untreated, 0 = no growth, -100 = all killed)
setup conditions: 10 µM unless noted
Description: Cells are grown in 96 well plates and exposed to the test compound for 48 hours. Compounds are tested at a single concentration, which is 10^-5 M for most compounds. The reported endpoint is percent growth (GI% or GIPRCNT), where numbers from 0 - 100% represent growth inhibition, and numbers from -100% - 0 represent cell death. For example, a value of 40 represents 60% growth inhibition. A value of 0 means no net growth occurred over the course of the experiment. […]
Compounds without any hit were thinned out: in the full panel of roughly 83,000, 20% have a hit.
Documented growth across a set of molecules
Hi! Could you send only the number? It should be in %, unit omitted.

Under MALME-3M melanoma: report growth of COc1cccc(C(=O)O)c1OC .
103

Name the value of growth reported for COC(=O)c1cccc([N+](=O)[O-])c1 when tested on MALME-3M melanoma.
102

Specify growth for CC1=CC(=Nc2ccc(N(C)C)cc2)C=C(C)C1=O , system MALME-3M melanoma.
92.6

Enter measured growth, system MALME-3M melanoma, for the molecule shown: C=CCOc1ccc(Cl)cc1Cl
113

Answer briefly: growth recorded on MALME-3M melanoma for Cc1ccc(NC(=O)c2ccccc2Cl)cc1
123
